B1: glmS ribozyme (parent)
chain: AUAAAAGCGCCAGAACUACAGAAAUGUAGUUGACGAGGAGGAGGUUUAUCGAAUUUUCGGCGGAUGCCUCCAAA

Variants of: B1
test: self-cleavage kobs at 160 uM GlcN6P; higher = faster cleavage; RNA array
recorded-conditions: with glucosamine-6-phosphate
This sample holds only a part of the variants without activity.
Listing of entries alongside the reported self-cleavage kobs at 160 uM GlcN6P.

Illustrative cases are given below, each with its answer.
[
  {
    "changes": "A12U U49A",
    "observed-property": "self-cleavage kobs at 160 uM GlcN6P",
    "assay-result": "< 1e-05 s⁻¹"
  },
  {
    "changes": "C8A A33U A64G C67U C71G",
    "observed-property": "self-cleavage kobs at 160 uM GlcN6P",
    "assay-result": "< 1e-05 s⁻¹"
  },
  {
    "changes": "C50G C58G G66U C68A",
    "observed-property": "self-cleavage kobs at 160 uM GlcN6P",
    "assay-result": "0.000177 s⁻¹"
  },
  {
    "changes": "G7U U55A",
    "observed-property": "self-cleavage kobs at 160 uM GlcN6P",
    "assay-result": "< 1e-05 s⁻¹"
  },
  {
    "changes": "A12C A15C A42U U57G C61G C71U",
    "observed-property": "self-cleavage kobs at 160 uM GlcN6P",
    "assay-result": "< 1e-05 s⁻¹"
  }
]

Qu. Return self-cleavage kobs at 160 uM GlcN6P for the following variant: A6G C70U
Ans. < 1e-05 s⁻¹

Qu. Note down self-cleavage kobs at 160 uM GlcN6P recorded for A6C G29C A53U
Ans. < 1e-05 s⁻¹

Qu. Fill in self-cleavage kobs at 160 uM GlcN6P for record A15G G43C
Ans. < 1e-05 s⁻¹

Qu. Recall and state the measured self-cleavage kobs at 160 uM GlcN6P for G29A C50G .
Ans. 0.000108 s⁻¹

Qu. In one line, give reported self-cleavage kobs at 160 uM GlcN6P of the entry C67A C71G .
Ans. 5.48e-05 s⁻¹

Qu. Name the recorded self-cleavage kobs at 160 uM GlcN6P of the item G29C G44A G60A A64G in your answer.
Ans. < 1e-05 s⁻¹

Qu. Note self-cleavage kobs at 160 uM GlcN6P for the variant shown: G9A U47C
Ans. < 1e-05 s⁻¹

Qu. Using known records, supply self-cleavage kobs at 160 uM GlcN6P for A15C G35A
Ans. < 1e-05 s⁻¹

Qu. Annotate the variant C34G A64U with its measured self-cleavage kobs at 160 uM GlcN6P.
Ans. < 1e-05 s⁻¹

Qu. Name the recorded self-cleavage kobs at 160 uM GlcN6P of the item U47C U49A in your answer.
Ans. < 1e-05 s⁻¹

Qu. Read off the recorded self-cleavage kobs at 160 uM GlcN6P for G62U G63A
Ans. < 1e-05 s⁻¹

Qu. Return the recorded self-cleavage kobs at 160 uM GlcN6P value; entry: U55C G66U
Ans. 0.000202 s⁻¹

Qu. Give the measured self-cleavage kobs at 160 uM GlcN6P for C11U C50G
Ans. 0.000271 s⁻¹

Qu. Identify self-cleavage kobs at 160 uM GlcN6P associated with the variant U30A A52C
Ans. < 1e-05 s⁻¹

Qu. Read off the recorded self-cleavage kobs at 160 uM GlcN6P for A39G G63U
Ans. < 1e-05 s⁻¹
